The following binders are shown together with reported pKd values.
system-under-test: T1, recombinant human B7-H4-huIgG1 (human)
T1 construct: also called B7-H4-extracellular domain (ECD)
T1 sequence (chain, as listed by the source limits assumed): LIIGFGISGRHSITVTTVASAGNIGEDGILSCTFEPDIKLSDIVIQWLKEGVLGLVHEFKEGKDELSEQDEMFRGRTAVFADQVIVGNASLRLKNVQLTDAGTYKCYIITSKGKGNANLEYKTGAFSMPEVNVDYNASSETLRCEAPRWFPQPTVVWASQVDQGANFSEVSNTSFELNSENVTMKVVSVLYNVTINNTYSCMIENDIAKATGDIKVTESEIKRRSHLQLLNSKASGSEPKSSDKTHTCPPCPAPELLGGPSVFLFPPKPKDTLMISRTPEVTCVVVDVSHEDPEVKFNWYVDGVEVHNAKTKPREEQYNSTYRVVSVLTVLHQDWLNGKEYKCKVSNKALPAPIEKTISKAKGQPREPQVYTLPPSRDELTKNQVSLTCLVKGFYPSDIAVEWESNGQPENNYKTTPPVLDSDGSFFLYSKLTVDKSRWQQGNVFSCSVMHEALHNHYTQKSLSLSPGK
protocol-text: BLI, antigen on Protein A tips;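 also: Anti-B7-H4 antibodies assessed for affinity toward the B7-H4 extracellular domain using biolayer interferometry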
pKd: −log10 of the molar value.
value-type: pKd

{"binder": "B7-H4 antibody 20502.1 (antibody, human IgG1, kappa, V domains shown, human IgG1/kappa) VH: QLQLQESGPGLVKPSETLSLTCTVSGGSIKSGSYYWGWIRQPPGKGLEWIGNIYYSGSTYYNPSLKSRVTISVDTSKNQFSLKLSSVTAADTAVYYCAREGSYPNQFDPWGQGILVTVSS VL: EIVMTQSPATLSVSPGERATLSCRASQSVSSNLAWYQQKPGQAPRLLIYGASTRATGIPARFSGSGSGTEFTLTISSLQSEDFAVYYCQQYHSFPFTFGGGTKVEIKR", "value-type": "pKd", "reported-result": 8.51}
{"binder": "B7-H4 antibody 15489 (antibody, human IgG1, kappa, V domains shown, human IgG1/kappa) VH: QVQLQESGPGLVKPSETLSLTCTVSGGSISSYYWSWIRQPPGKGLEWIGYIYSSGSTNYNPSLKSRVTISVDTSKNQFSLKLSSVTAADTAVYYCARGSGQYAAPDYGMDVWGQGTTVTVSS VL: DIQMTQSPSTLSASVGDRVTITCRASQSISSWLAWYQQKPGKAPKLLIYKASSLESGVPSRFSGSGSGTEFTLTISSLQPDDFATYYCQQDNSFPFTFGGGTKVEIKR", "value-type": "pKd", "reported-result": 7.20}
{"binder": "B7-H4 antibody 20501 (antibody, human IgG1, kappa, V domains shown, human IgG1/kappa) VH: QLQLQESGPGLVKPSETLSLTCTVSGGSIKSGSHYWGWIRQPPGKGLEWIGNIYYSGSTYYNPSLKSRVTISVDTSKNQFSLKLSSVTAADTAVYYCAREGSYPNWLDPWGQGTLVTVSS VL: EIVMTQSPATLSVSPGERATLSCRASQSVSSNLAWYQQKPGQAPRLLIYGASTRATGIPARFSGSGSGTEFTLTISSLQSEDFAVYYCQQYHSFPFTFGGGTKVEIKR", "value-type": "pKd", "reported-result": 8.59}
{"binder": "B7-H4 antibody 20500 (antibody, human IgG1, kappa, V domains shown, human IgG1/kappa) VH: QLQLQESGPGLVKPSETLSLTCTVSGGSIKSGSHYWGWIRQPPGKGLEWIGNIYYSGSTYYNPSLRSRVTISVDTSKNQFSLKLSSVTAADTAVYYCAREGSYPNWFDPWGQGTLVTVSS VL: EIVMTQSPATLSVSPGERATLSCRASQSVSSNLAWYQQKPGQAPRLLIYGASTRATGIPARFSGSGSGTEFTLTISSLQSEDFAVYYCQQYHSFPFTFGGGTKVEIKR", "value-type": "pKd", "reported-result": 8.22}

The origin of these recorded values is patent US20240043542A1.
